Attribution: patent US8906868B2

Tested on: Escherichia coli (ATCC 25922)
Assay: MIC, broth microdilution
Conditions: Escherichia coli, ATCC25922, read-out: Compound MIC on Bacterial Strains: E. coli ATCC 25922

{"MOLECULE": "CN[C@@H]1[C@@H](O)[C@@H](O[C@@H]2[C@@H](O)[C@H](O[C@H]3O[C@H](CNCCO)CC[C@H]3N)[C@@H](N)C[C@H]2NC(=O)[C@@H](O)CCCN)OC[C@]1(C)O", "MIC": "1 to 8 µg/mL"}
{"MOLECULE": "NCC[C@H](O)C(=O)N[C@@H]1C[C@H](N)[C@@H](O[C@H]2O[C@H](CN)[C@@H](O)[C@H](O)[C@H]2O)[C@H](O)[C@H]1O[C@H]1O[C@H](CO)[C@@H](O)[C@H](N)[C@H]1O [Amikacin, reference compound]", "MIC": "1 to 8 µg/mL"}

###

Each entry below lists one item and its recorded MIC value.
Tested on: Escherichia coli (ATCC 25922)
Experiment: MIC, broth microdilution
Conditions: Escherichia coli, ATCC25922, read-out: Compound MIC on Bacterial Strains: Escherichia coli ECM6000 ATCC 25922
MEASURE_NAME: MIC

{"MOLECULE": "CN[C@@H]1[C@@H](O)[C@@H](O[C@@H]2[C@@H](O)[C@H](O[C@H]3O[C@H](CNCC(O)CO)CC[C@H]3N)[C@@H](N)C[C@H]2NC(=O)[C@@H](O)CCN)OC[C@]1(C)O (stereo partly shown)", "TARGET_OR_SYSTEM": "Escherichia coli (ATCC 25922)", "MEASURED": "< 1 µg/mL"}
{"MOLECULE": "NC[C@H]1O[C@H](O[C@H]2[C@H](O)[C@@H](O[C@H]3O[C@H](CO)[C@@H](O)[C@H](N)[C@H]3O)[C@H](N)C[C@@H]2N)[C@H](N)C[C@@H]1O [Tobramycin, reference compound]", "TARGET_OR_SYSTEM": "Escherichia coli (ATCC 25922)", "MEASURED": "< 1 µg/mL"}
{"MOLECULE": "CNC[C@@H]1CCC(N)[C@@H](OC2C(O)C(O[C@H]3OCC(C)(O)[C@H](NC)C3O)[C@H](NC(=O)[C@@H](O)C(O)CN)C[C@@H]2N)O1 (stereo in doubt)", "TARGET_OR_SYSTEM": "Escherichia coli (ATCC 25922)", "MEASURED": "1 to 8 µg/mL"}
{"MOLECULE": "CN[C@@H]1[C@@H](O)[C@@H](O[C@@H]2[C@@H](O)[C@H](O[C@H]3O[C@H](CN)CC[C@H]3N)[C@@H](N)C[C@H]2NC(=O)[C@@H](O)[C@H](N)CN)OC[C@]1(C)O", "TARGET_OR_SYSTEM": "Escherichia coli (ATCC 25922)", "MEASURED": "1 to 8 µg/mL"}
{"MOLECULE": "CN[C@@H]1C(O)[C@@H](OC2C(O)C(O[C@H]3O[C@H](CNC[C@@H](O)CO)CCC3N)[C@@H](N)C[C@H]2NC(=O)[C@@H](O)CN)OCC1(C)O (stereo partly shown)", "TARGET_OR_SYSTEM": "Escherichia coli (ATCC 25922)", "MEASURED": "< 1 µg/mL"}
{"MOLECULE": "CN[C@@H]1C(O)[C@@H](OC2C(O)C(O[C@H]3O[C@H](CN)CCC3N)[C@@H](N)C[C@H]2NC(=O)[C@@H](O)[C@@H](O)CN)OCC1(C)O (stereo partly shown)", "TARGET_OR_SYSTEM": "Escherichia coli (ATCC 25922)", "MEASURED": "1 to 8 µg/mL"}
{"MOLECULE": "CCN[C@@H]1C[C@H](N)[C@@H](O[C@H]2OC(CN)=CC[C@H]2N)[C@H](O)[C@H]1O[C@H]1OC[C@](C)(O)[C@H](NC)[C@H]1O [Netilmicin, reference compound]", "TARGET_OR_SYSTEM": "Escherichia coli (ATCC 25922)", "MEASURED": "< 1 µg/mL"}
{"MOLECULE": "CN[C@@H]1C(O)[C@@H](OC2C(O)C(O[C@H]3O[C@H](CN)CCC3N)[C@@H](N)C[C@H]2NC(=N)CO)OCC1(C)O (stereo partly shown)", "TARGET_OR_SYSTEM": "Escherichia coli (ATCC 25922)", "MEASURED": "1 to 8 µg/mL"}
{"MOLECULE": "CN[C@@H]1[C@@H](O)[C@@H](O[C@@H]2[C@@H](O)[C@H](O[C@H]3O[C@H](CNCCF)CC[C@H]3N)[C@@H](N)C[C@H]2NC(=O)[C@@H](O)CN)OC[C@]1(C)O", "TARGET_OR_SYSTEM": "Escherichia coli (ATCC 25922)", "MEASURED": "< 1 µg/mL"}
{"MOLECULE": "CN[C@@H]1[C@@H](O)[C@@H](O[C@@H]2[C@@H](O)[C@H](O[C@H]3O[C@H](CNC[C@H](O)CO)CC[C@H]3N)[C@@H](N)C[C@H]2NC(=O)[C@@H](O)CN)OC[C@]1(C)O", "TARGET_OR_SYSTEM": "Escherichia coli (ATCC 25922)", "MEASURED": "< 1 µg/mL"}
